test system: Mycobacterium tuberculosis; assay: Antimycobacterial activity against Mycobacterium tuberculosis H37Rv assessed as reduction in relative light units at 100 ug/ml after 72 hrs by luciferase reporter phage assay; type: functional; parameters: scale not given: the % may be the effect or the level left
The threshold is inclusive: Activity of exactly 20% counts as Condition met; values below receive Condition not met.

// query Hi, just wondering whether COc1ccc(C2=NN(c3ccccc3)C(c3ccc(SC)cc3)C2)cc1OC (stereo unspecified) shows Activity of 20% or higher.
// result Condition met

// query Hi, just wondering whether CSc1ccc(C2CC(c3cccc4c3OCO4)=NN2c2ccccc2)cc1 (stereo unspecified) shows Activity of 20% or higher.
// result Condition met

// query Hi, just wondering whether CSc1ccc(C2CC(c3ccccc3Cl)=NN2c2ccccc2)cc1 (stereo unspecified) shows Activity of 20% or higher.
// result Condition not met

// query Hi, just wondering whether CSc1ccc(C2CC(c3ccc(C)cc3)=NN2c2ccccc2)cc1 (stereo unspecified) shows Activity of 20% or higher.
// result Condition not met

// query Hi, just wondering whether CS(=O)(=O)c1ccc(C2CC(c3ccc(Cl)cc3)=NN2c2ccccc2)cc1 (stereo unspecified) shows Activity of 20% or higher.
// result Condition not met

// query Hi, just wondering whether CSc1ccc(C2CC(c3cccc([N+](=O)[O-])c3)=NN2c2ccccc2)cc1 (stereo unspecified) shows Activity of 20% or higher.
// result Condition not met

// query Hi, just wondering whether CSc1ccc(C2CC(c3cccc(N)c3)=NN2c2ccccc2)cc1 (stereo unspecified) shows Activity of 20% or higher.
// result Condition not met

// query Hi, just wondering whether CS(=O)(=O)c1ccc(C2CC(c3ccccc3)=NN2c2ccccc2)cc1 (stereo unspecified) shows Activity of 20% or higher.
// result Condition met

// query Hi, just wondering whether CSc1ccc(C2CC(c3ccccc3)=NN2c2ccccc2)cc1 (stereo unspecified) shows Activity of 20% or higher.
// result Condition not met

// query Hi, just wondering whether COc1cccc(C2=NN(c3ccccc3)C(c3ccc(SC)cc3)C2)c1 (stereo unspecified) shows Activity of 20% or higher.
// result Condition met

Values were extracted from ChEMBL document CHEMBL1158580.
